Target: CCR2 (Homo sapiens)
Construct: endogenous in cells; host or cells: THP-1
Sequence (P41597 1-360 isoform P41597-2): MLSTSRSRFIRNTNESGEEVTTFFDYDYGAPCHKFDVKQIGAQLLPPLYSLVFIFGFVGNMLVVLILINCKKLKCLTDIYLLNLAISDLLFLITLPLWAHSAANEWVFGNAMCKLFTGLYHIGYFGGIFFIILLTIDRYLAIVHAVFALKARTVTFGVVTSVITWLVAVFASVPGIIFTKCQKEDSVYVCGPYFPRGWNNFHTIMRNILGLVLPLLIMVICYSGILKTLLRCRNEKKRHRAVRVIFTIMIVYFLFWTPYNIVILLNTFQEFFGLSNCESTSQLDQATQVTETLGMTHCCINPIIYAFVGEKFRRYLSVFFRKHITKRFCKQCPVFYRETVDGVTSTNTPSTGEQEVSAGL
Assay: CCR2 inhibitory potency assay, calcium flux method, THP-1 cells stimulated with 100 nM CCL2
Assay type: cell-based
Conditions: Table 4; CCR2 inhibition; read-out: mean IC50
Where no end group is shown, it is not given here. [ ]: non-standard residue; d: D form. Nle = CCCC[C@H](N)C(=O)O
Threshold 0.9 nM: IC50 strictly smaller gives Satisfied, otherwise Not satisfied.

substance	className
CCL2 variant, N-terminal FP(Nle)DGWRPRQ (SEQ ID NO: 108), human CCL2 11-76 Met64Nle core (FP[Nle]DGWRPRQ; also: fused to human CCL2 11-76 core with Met64Nle) [4P5-CCL2]	Not satisfied
CCL2 variant, N-terminal FTNPTWDPFT (SEQ ID NO: 95), human CCL2 11-76 Met64Nle core [3P20-CCL2]	Satisfied
CCL2 variant, N-terminal FTNPTWDSFS (SEQ ID NO: 84), human CCL2 11-76 Met64Nle core (not fully specified (C-terminus); also: followed C-terminally by human CCL2 11-76 core with Met64Nle) [3P9-CCL2]	Satisfied

Next substance, please.
Request: A record lists CCL2 variant, N-terminal FP(Nle)DGWRGET (SEQ ID NO: 110), human CCL2 11-76 Met64Nle core (FP[Nle]DGWRGET; also: followed by human CCL2 11-76 core with Met64Nle) [4P6-CCL2] . Is its IC50 below 0.9 nM?
Response: Not satisfied

* * *

Target: CCR2 (Homo sapiens, UniProt P41597)
Construct: endogenous in cells; host or cells: THP-1
Sequence (P41597 1-360 isoform P41597-2): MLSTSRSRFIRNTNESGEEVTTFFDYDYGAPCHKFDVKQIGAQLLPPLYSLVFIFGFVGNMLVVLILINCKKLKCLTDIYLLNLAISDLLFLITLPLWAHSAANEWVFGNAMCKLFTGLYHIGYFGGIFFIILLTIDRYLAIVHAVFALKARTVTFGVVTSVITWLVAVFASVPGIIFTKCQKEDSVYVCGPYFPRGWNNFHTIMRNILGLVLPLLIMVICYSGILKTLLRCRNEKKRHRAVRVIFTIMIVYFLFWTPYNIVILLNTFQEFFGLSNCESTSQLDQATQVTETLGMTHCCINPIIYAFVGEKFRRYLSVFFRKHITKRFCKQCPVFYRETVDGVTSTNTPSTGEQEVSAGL
Assay: CCR2 inhibitory potency assay, calcium flux method, THP-1 cells stimulated with 100 nM CCL2
Format: cell-based
Settings: Table 4; CCR2 inhibition; read-out: mean IC50
Experimental: CCR2 inhibitory potency assay was determined using the calcium flux method. Ca^2+ flux measurements were performed using an FDSS micro-cell device ([…]). On the day of the experiment, THP-1 cells were seeded 20000 cells/well) to wells of black-walled clear-bottom 384-well plates. […]
Where no end group is shown, it is not given here. [ ]: non-standard residue; d: D form. Nle = CCCC[C@H](N)C(=O)O
Entries annotated with measured IC50
Report the value in nM with no unit label.

Request: Field: IC50 (CCR2 (Homo sapiens, UniProt P41597)). Entry: CCL2 variant, N-terminal FTNPTWDAVT (SEQ ID NO: 89), human CCL2 11-76 Met64Nle core [3P14-CCL2]
Response: 0.594

Request: Write down the reported IC50 of CCL2 variant, N-terminal FTNPTWSGVT (SEQ ID NO: 81), human CCL2 11-76 Met64Nle core (not fully specified (C-terminus); also: followed C-terminally by human CCL2 11-76 core with Met64Nle) [3P6-CCL2] , test system: CCR2 (Homo sapiens, UniProt P41597).
Response: 1.27

Request: Param readout= IC50; system= CCR2 (Homo sapiens, UniProt P41597); entry= CCL2 variant, N-terminal FP(Nle)DGWRPLV (SEQ ID NO: 140), human CCL2 11-76 Met64Nle core (FP[Nle]DGWRPLV; also: fused to human CCL2 11-76 core with Met64Nle) [4P22-CCL2] ; returns value.
Response: 0.759

Request: Please provide the recorded IC50 for CCL2 variant, N-terminal FP(Nle)DGWQGGV (SEQ ID NO: 122), human CCL2 11-76 Met64Nle core (FP[Nle]DGWQGGV; also: followed by human CCL2 11-76 core with Met64Nle) [4P13-CCL2] , tested on CCR2 (Homo sapiens, UniProt P41597).
Response: 0.534

Request: # value lookup — system CCR2 (Homo sapiens, UniProt P41597), readout IC50, item CCL2 variant, N-terminal FTNPTWSQGV (SEQ ID NO: 94), human CCL2 11-76 Met64Nle core (not fully specified (C-terminus); also: followed C-terminally by human CCL2 11-76 core with Met64Nle) [3P19-CCL2]
Response: 0.914

Request: IC50 of CCL2 variant, N-terminal FP(Nle)DGWRGLV (SEQ ID NO: 136), human CCL2 11-76 Met64Nle core (FP[Nle]DGWRGLV; also: followed by human CCL2 11-76 core with Met64Nle) [4P20-CCL2] on CCR2 (Homo sapiens, UniProt P41597)?
Response: 0.93

Request: Give CCR2 (Homo sapiens, UniProt P41597) IC50 for CCL2 variant, N-terminal FP(Nle)DGWGPGV (SEQ ID NO: 144), human CCL2 11-76 Met64Nle core (FP[Nle]DGWGPGV; also: followed by human CCL2 11-76 core with Met64Nle) [4P24-CCL2]
Response: 1.65

Request: Reported IC50 for CCR2 (Homo sapiens, UniProt P41597), given CCL2 variant, N-terminal FP(Nle)DGWRGQV (SEQ ID NO: 128), human CCL2 11-76 Met64Nle core (FP[Nle]DGWRGQV; also: fused to human CCL2 11-76 core with Met64Nle) [4P16-CCL2] ?
Response: 0.82

Request: Quick check: IC50 on CCR2 (Homo sapiens, UniProt P41597), item CCL2 variant, N-terminal FTNPTWDAFT (SEQ ID NO: 76), human CCL2 11-76 Met64Nle core [3P1-CCL2] ?
Response: 0.655
